- system_under_test: M3 (Homo sapiens)
- Sequence (P20309 whole entry): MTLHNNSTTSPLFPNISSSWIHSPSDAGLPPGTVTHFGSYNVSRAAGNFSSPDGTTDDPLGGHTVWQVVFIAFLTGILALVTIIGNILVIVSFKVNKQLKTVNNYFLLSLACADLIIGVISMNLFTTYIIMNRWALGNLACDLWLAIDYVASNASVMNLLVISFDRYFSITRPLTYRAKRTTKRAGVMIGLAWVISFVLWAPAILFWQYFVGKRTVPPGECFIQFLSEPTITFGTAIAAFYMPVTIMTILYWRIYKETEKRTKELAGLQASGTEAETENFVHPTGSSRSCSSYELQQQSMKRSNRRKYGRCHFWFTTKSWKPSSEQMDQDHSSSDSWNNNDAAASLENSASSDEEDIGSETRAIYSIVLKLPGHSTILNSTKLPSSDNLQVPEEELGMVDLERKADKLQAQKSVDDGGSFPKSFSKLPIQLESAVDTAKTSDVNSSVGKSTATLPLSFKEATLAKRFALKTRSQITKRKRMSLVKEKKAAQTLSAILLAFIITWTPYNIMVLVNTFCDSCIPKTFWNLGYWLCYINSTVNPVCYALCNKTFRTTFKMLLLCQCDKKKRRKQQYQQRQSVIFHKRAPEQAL
- procedure_summary: In vitro functional assay of muscarinic acetylcholine receptor activity, M3
- Format: cell-based
- measurement_context: antagonist IC50 at M3; read-out: M3 IC50
result_type: IC50

INSERT INTO results (given_smiles, data_value) VALUES
  ('N#Cc1ccc(N2C3CCC2CN(C(=O)CCS(=O)(=O)c2cccc4ncsc24)C3)nc1', '0.1 to 1 µM'),
  ('Cc1ccc2ncnn2c1CNCCC(=O)N1CC2CCC(C1)N2c1ccc(C#N)cn1', '> 10 µM'),
  ('O=C(N1CC(Oc2cccc3ncccc23)C1)N1C[C@H]2CC[C@@H](C1)N2c1ccc(F)cn1', '> 10 µM'),
  ('Cc1nc2cccc(CCCC(=O)N3CCN(c4ccncc4F)CC3)c2o1', '> 10 µM');

* * *

- system_under_test: UniProtKB P11229
- Sequence (P11229 1-460): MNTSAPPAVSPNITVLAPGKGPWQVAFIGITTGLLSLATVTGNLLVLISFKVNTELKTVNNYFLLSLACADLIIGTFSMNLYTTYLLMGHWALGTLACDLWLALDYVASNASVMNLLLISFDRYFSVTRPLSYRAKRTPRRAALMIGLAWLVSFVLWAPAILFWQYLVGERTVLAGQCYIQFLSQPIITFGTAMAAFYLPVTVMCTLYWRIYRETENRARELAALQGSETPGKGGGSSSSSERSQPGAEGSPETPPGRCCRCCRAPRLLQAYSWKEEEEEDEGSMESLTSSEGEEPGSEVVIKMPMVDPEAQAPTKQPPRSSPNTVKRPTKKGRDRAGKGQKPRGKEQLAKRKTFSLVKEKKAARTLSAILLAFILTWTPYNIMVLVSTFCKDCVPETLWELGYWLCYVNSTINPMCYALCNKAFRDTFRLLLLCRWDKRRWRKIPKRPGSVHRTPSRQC
- procedure_summary: In vitro functional assay of muscarinic acetylcholine receptor activity (aequorin calcium flux, antagonist mode vs EC80 acetylcholine), M1
- Assay type: cell-based
- measurement_context: CHO-K1 cells stably expressing human M1 receptor with Aequorin; decrease in EC80 acetylcholine response; read-out: M1 IC50
result_type: IC50

INSERT INTO measurements (compound, data_value) VALUES
  ('COc1cnc2cccc(CCCC(=O)N3CCN(c4ccncc4F)CC3)c2c1 [Example 74]', '1 to 10 µM'),
  ('O=C(CCS(=O)(=O)c1cccc2ncsc12)N1CCC(c2ccc(C(F)(F)F)cn2)CC1 [Example 22]', '0.1 to 1 µM'),
  ('C[C@H]1CN(c2cc[nH]c(=O)c2)CCN1C(=O)CCS(=O)(=O)c1cccc2ncsc12 [Example 117]', '1 to 10 µM'),
  ('O=C(CCS(=O)(=O)c1cccc2ncsc12)N1CCN(c2ccc(Cl)cn2)CC1 [Example 110]', '0.1 to 1 µM');

* * *

- system_under_test: M3 (Homo sapiens)
- procedure_summary: In vitro functional assay of muscarinic acetylcholine receptor activity, M3
- Assay type: cell-based
- measurement_context: antagonist IC50 at M3; read-out: M3 IC50
pIC50: −log10 of the molar value.
result_type: pIC50

INSERT INTO results (compound, data_value) VALUES
  ('O=C(CCCc1cccc2ncccc12)N1CCN(c2ccncc2)CC1', '5.00 to 6.00'),
  ('O=C(CCS(=O)(=O)c1c(F)ccc2nccn12)N1CC2CCC(C1)N2c1ccc(F)cn1', '> 7.00'),
  ('O=C(COCc1cccc2nccn12)N1C[C@H]2CC[C@@H](C1)N2c1ccncc1F', '< 5.00'),
  ('C[C@@H]1CN(c2ccc(F)c(C#N)c2)CCN1C(=O)CCCc1cccc2ncccc12', '5.00 to 6.00'),
  ('O=C(C1CC1COc1cccc2ncsc12)N1C[C@H]2CC[C@@H](C1)N2c1ccncc1F (stereo partly drawn)', '5.00 to 6.00'),
  ('N#Cc1ccc(N2CC3CCC2CN3C(=O)CCNCc2cccc3ncsc23)nc1 (stereo not drawn)', '5.00 to 6.00'),
  ('N#Cc1ccc(N2C3CCC2CN(C(=O)N2CC(=Cc4cccc5ncccc45)C2)C3)nc1', '5.00 to 6.00'),
  ('N#Cc1ccc(N2C3CCC2CN(C(=O)CCN(Cc2cccc4ncsc24)C2CC2)C3)nc1', '6.00 to 7.00'),
  ('N#Cc1ccc(N2C3CCC2CN(C(=O)CCNCc2cccc4ncsc24)C3)nc1', '5.00 to 6.00'),
  ('O=C(CCNCc1cccc2ncsc12)N1C[C@H]2CC[C@@H](C1)N2c1ccncc1F', '5.00 to 6.00'),
  ('N#Cc1ccc(N2C3CCC2CN(C(=O)CCOCc2cccc4nccn24)C3)nc1', '5.00 to 6.00'),
  ('CC1CN(C(=O)CCCc2cccc3ncccc23)CCN1c1ccc(F)cn1 (stereo not drawn)', '5.00 to 6.00'),
  ('N#Cc1cc(N2C3CCC2CN(C(=O)CCNCc2cccc4ncsc24)C3)ccn1', '< 5.00'),
  ('O=C(COCc1cccc2ncsc12)N1C[C@H]2CC[C@@H](C1)N2c1ccncc1F', '< 5.00'),
  ('N#Cc1ccc(N2C3CCC2CN(C(=O)CNCCc2cccc4ncsc24)C3)nc1', '5.00 to 6.00'),
  ('[2H]C([2H])(NCCC(=O)N1CC2CCC(C1)N2c1ccc(C#N)cn1)c1cccc2ncsc12', '5.00 to 6.00'),
  ('Cc1cncc(Cl)c1N1CCN(C(=O)CCS(=O)(=O)c2cccc3ncsc23)[C@@H](C)C1', '5.00 to 6.00'),
  ('N#Cc1ccc(N2C3CCC2CN(C(=O)C2CC(=Cc4cccc5cnccc45)C2)C3)nc1 (stereo not drawn)', '5.00 to 6.00'),
  ('Cc1cc(F)cnc1N1C[C@H]2C[C@@H]1CN2C(=O)CCCc1cccc2ncccc12 (racemic)', '< 5.00'),
  ('N#Cc1ccc(N2C3CCC2CN(C(=O)CCOCc2cccn4ncnc24)C3)nc1', '5.00 to 6.00'),
  ('N#Cc1ccc(-c2ccc(N3C4CCC3CN(C(=O)CCNCc3cccc5ncnn35)C4)cc2)nc1', '< 5.00'),
  ('Cc1cc(F)cnc1N1CCN(C(=O)CCCc2cccc3ncsc23)[C@@H](C)C1', '5.00 to 6.00'),
  ('Cc1cncc(Cl)c1N1CCN(C(=O)CCS(=O)(=O)c2cccc3ncsc23)CC1', '5.00 to 6.00'),
  ('Cc1cc(F)cnc1N1CCN(C(=O)CCCc2cccc3ncc(CO)cc23)[C@@H](C)C1', '5.00 to 6.00'),
  ('O=C([C@H]1C[C@H](Oc2cccc3ncsc23)C1)N1CC2CCC(C1)N2c1ncc(Cl)cn1', '5.00 to 6.00'),
  ('O=C(CCNCc1cccc2ncccc12)N1C[C@H]2CC[C@@H](C1)N2c1ccncc1F', '< 5.00'),
  ('N#Cc1ccc(N2C3CCC2CN(C(=O)C2CC(NCc4cccc5ncsc45)C2)C3)nc1 (stereo not drawn)', '< 5.00'),
  ('N#Cc1ccc(N2[C@@H]3CC[C@H]2CN(C(=O)CCOCc2cccc4ncccc24)C3)nc1', '< 5.00'),
  ('N#Cc1ccc(N2CCN(C(=O)CCCc3cccc4ncoc34)CC2)nc1', '< 5.00'),
  ('O=C(CCOCc1cccc2cnccc12)N1C[C@H]2CC[C@@H](C1)N2c1ccc(F)cn1', '< 5.00'),
  ('CC1CN(c2ccc(C#N)cn2)[C@H](C)CN1C(=O)CCS(=O)(=O)c1cccc2ncsc12 (stereo partly drawn)', '< 5.00'),
  ('Cc1cc(F)cnc1N1CCN(C(=O)CCCc2cccc3ncccc23)CC1', '5.00 to 6.00'),
  ('O=C(C1CN(Cc2cccc3ncsc23)C1)N1C[C@H]2CC[C@@H](C1)N2c1ccncc1F', '< 5.00');

* * *

Let's look at some compounds and their measured pIC50.
- system_under_test: M2 (Homo sapiens, UniProt P08172)
- Sequence (P08172 whole entry): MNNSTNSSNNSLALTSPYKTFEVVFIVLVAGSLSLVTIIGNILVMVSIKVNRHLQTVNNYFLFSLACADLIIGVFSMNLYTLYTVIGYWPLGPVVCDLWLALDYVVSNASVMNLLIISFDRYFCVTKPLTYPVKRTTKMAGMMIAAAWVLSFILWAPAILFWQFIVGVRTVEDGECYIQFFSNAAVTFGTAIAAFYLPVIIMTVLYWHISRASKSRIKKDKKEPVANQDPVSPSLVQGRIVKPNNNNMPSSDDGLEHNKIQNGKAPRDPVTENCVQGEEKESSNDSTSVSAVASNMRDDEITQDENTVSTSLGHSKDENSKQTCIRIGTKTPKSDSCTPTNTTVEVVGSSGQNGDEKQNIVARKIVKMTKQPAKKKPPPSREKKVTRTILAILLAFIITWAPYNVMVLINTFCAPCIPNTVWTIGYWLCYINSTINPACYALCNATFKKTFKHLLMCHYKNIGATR
- procedure_summary: In vitro functional assay of muscarinic acetylcholine receptor activity, M2
- Type: cell-based
- measurement_context: antagonist IC50 at M2; read-out: M2 IC50
pIC50: −log10 of the molar value.
result_type: pIC50

INSERT INTO measurements (compound, data_value) VALUES
  ('O=C(CNCCc1cccc2ncsc12)N1CC2CCC(C1)N2c1ccncc1F', '5.00 to 6.00'),
  ('N#Cc1ccc(C2=CC3CCC(C2)N3C(=O)CCS(=O)(=O)c2cccc3ncsc23)nc1 (centres unmarked)', '5.00 to 6.00'),
  ('N#Cc1ccc(N2C3CCC2CN(C(=O)CCNCc2cccc4ncnn24)C3)nc1', '5.00 to 6.00'),
  ('N#Cc1ccc(N2CC3CCC2CN3C(=O)CCNCc2cccc3ncsc23)nc1 (centres unmarked)', '5.00 to 6.00'),
  ('N#Cc1ccc(N2C3CCC2CN(C(=O)CCNCc2cccc4ncnn24)C3)cc1', '< 5.00'),
  ('C[C@@H]1CN(c2ccncc2Cl)CCN1C(=O)CCS(=O)(=O)c1cccc2ncsc12', '6.00 to 7.00'),
  ('COc1cnc2cccc(COCCC(=O)N3C[C@H]4CC[C@@H](C3)N4c3ccncc3F)c2c1', '5.00 to 6.00'),
  ('Cc1cc(F)cnc1N1CCN(C(=O)COCc2cccc3ncsc23)[C@@H](C)C1', '5.00 to 6.00');
